assay: Cytotoxicity assay (MTT reduction), HEPG2 cells; format: cell-based, human; conditions: human, HEPG2 cells (human hepatoma); HEPG2 cells, 72 h, mean ± SD
Define the label as yes when CC50 at 72 h is strictly less than 6 µM and as no in all remaining cases.

COc1ccc(Nc2nc(C)c(N)c(Nc3ccc(OC)cc3)n2)cc1    yes
CC(O)c1cccc(Nc2nc(NCc3ccco3)c3ccccc3n2)c1 (stereo not drawn)    no
COc1ccc(Nc2nc(Nc3ccc([N+](=O)[O-])cc3)nc(OC)n2)cc1    no
CC(Nc1nc(N2CCNCC2)nc2ccccc12)c1ccccc1 (stereo not drawn)    yes

Would you kindly look at the next entry?
# strict comparison: is reported CC50 at 72 h < 6 µM? input = CC(O)c1cccc(Nc2nc(NCCO)c3ccccc3n2)c1 (stereo not drawn)
no

* * *

Catalogue of EC50 readings, one per entry.
System: P. falciparum 3D7 (sensitive) strain, asexual blood stage
Assay: Plasmodium growth inhibition by SYBR Green I, 3D7 strain
Format: cell-based
Details: 3D7 / DD2, both 3D7 and Dd2 strains, summary bound, read-out: EC50 (3D7 and Dd2 strains)
Procedure: Parasite cultures (3D7 and Dd2 strains) were maintained in O^+ human erythrocytes in RPMI 1640 medium supplemented with 0.05 mg/mL gentamycin, 38.4 mM HEPES, 0.2% sodium bicarbonate, and 10% O^+ human serum as described before (Trager and Jensen, [1976]). To achieve a synchronic culture in the ring stage, two consecutive treatments at 48 h intervals with a 5% solution of D-sorbitol were done (Lambros and Vanderberg, [1979]). […]

CC(O)c1cccc(Nc2nc(NCc3ccco3)c3ccccc3n2)c1 (stereo not drawn) [LabMol-172]    < 1 µM
c1ccc2c(NCC3CCCO3)nc(Nc3ccc4c(c3)OCO4)nc2c1 (stereo not drawn) [LabMol-181]    < 1 µM

For the next question, use this molecule.
Bench note, P. falciparum 3D7 (sensitive) strain, asexual blood stage: CC(O)c1cccc(Nc2nc(NCCO)c3ccccc3n2)c1 (stereo not drawn) [LabMol-171] , EC50 reads < 1 µM

* * *

system: P. falciparum 3D7 (sensitive) strain, asexual blood stage; assay: Plasmodium growth inhibition by SYBR Green I, 3D7 strain; type: cell-based; details: 3D7 strain, 72 h, mean ± SD of three independent assays, read-out: EC50 3D7
Catalogue of EC50 readings, one per entry.
Numeric only. Scale: µM

CC(O)c1cccc(Nc2nc(NCc3ccco3)c3ccccc3n2)c1 (centres unmarked)    0.43

Noted for `COc1ccc(Nc2nc(C)c(N)c(Nc3ccc(OC)cc3)n2)cc1` : its EC50 reads 1.14

Noted for `COc1ccc(Nc2nc(Nc3ccc([N+](=O)[O-])cc3)nc(OC)n2)cc1` : its EC50 reads 8.77

* * *

Test system: P. berghei Ookluc line ookinete formation
Test: Inhibition of P. berghei sexual stage progression (ookinete conversion, nLuc)
Format: cell-based
Conditions: Plasmodium berghei, 24 h at 21°C, mean ± SD
Description: Balb/c mice were infected intraperitoneally with the P. berghei Ookluc line (Calit et al., [2018]). […] The luciferase activity was measured using a plate luminometer SpectraMax i3; Molecular Devices and the % of conversion inhibition were calculated relative to the luciferase activity in the control assays. […]
Use 1 (yes) when the recorded inhibition at 10 µM is no lower than 10%; use 0 (no) when it is lower.

Example entries begin here.
CC(Nc1nc(N2CCNCC2)nc2ccccc12)c1ccccc1 (stereo not shown)    1 (yes)
CN1CCN(CCC2CCCCN2Cc2ccnc3ccccc23)CC1 (stereo not shown)    0 (no)
COc1ccc(Nc2nc(Nc3ccc([N+](=O)[O-])cc3)nc(OC)n2)cc1    0 (no)

Does the reported inhibition at 10 µM for CC(O)c1cccc(Nc2nc(NCc3ccco3)c3ccccc3n2)c1 (stereo not shown) fall at or above the 10% mark?
0 (no)

Does the reported inhibition at 10 µM for `Cc1ccc(-c2nc(NCc3cnc(C)cn3)ncc2-c2ccc(N)nc2)cc1` fall at or above the 10% mark?
0 (no)

Does the reported inhibition at 10 µM for CC(O)c1cccc(Nc2nc(NCCO)c3ccccc3n2)c1 (stereo not shown) fall at or above the 10% mark?
1 (yes)

Does the reported inhibition at 10 µM for `O=C(NCCO)c1cccc(Nc2nc(-c3ccccc3)c3cc(Cl)ccc3n2)c1` fall at or above the 10% mark?
1 (yes)

Does the reported inhibition at 10 µM for c1ccc2c(NCC3CCCO3)nc(Nc3ccc4c(c3)OCO4)nc2c1 (stereo not shown) fall at or above the 10% mark?
1 (yes)

Does the reported inhibition at 10 µM for `Cc1cc(NCCCN2CCN(C)CC2)nc(-c2ccccc2O)n1` fall at or above the 10% mark?
1 (yes)

Does the reported inhibition at 10 µM for `COc1ccc(Nc2nc(C)c(N)c(Nc3ccc(OC)cc3)n2)cc1` fall at or above the 10% mark?
1 (yes)

* * *

experiment: Cytotoxicity assay (MTT reduction), COS7 cells; format: cell-based, monkey; conditions: monkey, COS7 cells (fibroblast-like, monkey kidney); COS7 cells, 72 h, mean ± SD
property-label: CC50 at 72 h

COc1ccc(Nc2nc(C)c(N)c(Nc3ccc(OC)cc3)n2)cc1    7.59 µM

Noted for c1ccc2c(NCC3CCCO3)nc(Nc3ccc4c(c3)OCO4)nc2c1 (stereo not drawn) : its CC50 at 72 h reads 18.3 µM

Noted for CC(Nc1nc(N2CCNCC2)nc2ccccc12)c1ccccc1 (stereo not drawn) : its CC50 at 72 h reads 34.9 µM

Noted for `COc1ccc(Nc2nc(Nc3ccc([N+](=O)[O-])cc3)nc(OC)n2)cc1` : its CC50 at 72 h reads 44.6 µM

Noted for CC(O)c1cccc(Nc2nc(NCc3ccco3)c3ccccc3n2)c1 (stereo not drawn) : its CC50 at 72 h reads 12.1 µM

Noted for CC(O)c1cccc(Nc2nc(NCCO)c3ccccc3n2)c1 (stereo not drawn) : its CC50 at 72 h reads 48.4 µM

* * *

tested on: P. falciparum 3D7 (sensitive) strain, asexual blood stage; assay: Plasmodium growth inhibition by SYBR Green I, 3D7 strain; format: cell-based; settings: 3D7 strain, 72 h, mean ± SD of three independent assays, read-out: EC50 3D7
property-label: pEC50
Answer as the number alone; pEC50 is minus log10 of concentration in mol/L.

// solved cases for pEC50 follow
CC(O)c1cccc(Nc2nc(NCCO)c3ccccc3n2)c1 (centres unmarked) [LabMol-171]    6.46
CC(Nc1nc(N2CCNCC2)nc2ccccc12)c1ccccc1 (centres unmarked) [LabMol-176]    5.94

For the next question, use this molecule.
Noted for c1ccc2c(NCC3CCCO3)nc(Nc3ccc4c(c3)OCO4)nc2c1 (centres unmarked) [LabMol-181] : its pEC50 reads 6.41

Taken from paper PMC6881481.
